For each of the sequences below, state its solubility in G1/S (log2).
- System: HeLa Kyoto
- assayText: solubility in G1/S (NP-40 vs SDS abundance) (log2 ratio); higher = more soluble
- measurementContext: cell cycle stage: G1/S
Reply with just the number.

## Task Dear colleague, please send me the reported solubility in G1/S (log2) for MSTAREQPIFSTRAHVFQIDPATKRNWIPAGKHALTVSYFYDATRNVYRIISIGGAKAIINSTVTPNMTFTKTSQKFGQWADSRANTVYGLGFASEQHLTQFAEKFQEVKEAARLAREKSQDGGELTSPALGLASHQVPPSPLVSANGPGEEKLFRSQSADAPGPTERERLKKMLSEGSVGEVQWEAEFFALQDSNNKLAGALREANAAAAQWRQQLEAQRAEAERLRQRVAELEAQAASEVTPTGEKEGLGQGQSLEQLEALVQTKDQEIQTLKSQTGGPREALEAAEREETQQKVQDLETRNAELEHQLRAMERSLEEARAERERARAEVGRAAQLLDVSLFELSELREGLARLAEAAP [HOMER3] when you can.
## Result 0.263

## Task Dear colleague, please send me the reported solubility in G1/S (log2) for MSRPRKRLAGTSGSDKGLSGKRTKTENSGEALAKVEDSNPQKTSATKNCLKNLSSHWLMKSEPESRLEKGVDVKFSIEDLKAQPKQTTCWDGVRNYQARNFLRAMKLGEEAFFYHSNCKEPGIAGLMKIVKEAYPDHTQFEKNNPHYDPSSKEDNPKWSMVDVQFVRMMKRFIPLAELKSYHQAHKATGGPLKNMVLFTRQRLSIQPLTQEEFDFVLSLEEKEPS [THYN1] when you can.
## Result 0.389

## Task Dear colleague, please send me the reported solubility in G1/S (log2) for MAEPQPPSGGLTDEAALSCCSDADPSTKDFLLQQTMLRVKDPKKSLDFYTRVLGMTLIQKCDFPIMKFSLYFLAYEDKNDIPKEKDEKIAWALSRKATLELTHNWGTEDDETQSYHNGNSDPRGFGHIGIAVPDVYSACKRFEELGVKFVKKPDDGKMKGLAFIQDPDGYWIEILNPNKMATLM [GLO1] when you can.
## Result 0.117

## Task Dear colleague, please send me the reported solubility in G1/S (log2) for MGFNLTFHLSYKFRLLLLLTLCLTVVGWATSNYFVGAIQEIPKAKEFMANFHKTLILGKGKTLTNEASTKKVELDNCPSVSPYLRGQSKLIFKPDLTLEEVQAENPKVSRGRYRPQECKALQRVAILVPHRNREKHLMYLLEHLHPFLQRQQLDYGIYVIHQAEGKKFNRAKLLNVGYLEALKEENWDCFIFHDVDLVPENDFNLYKCEEHPKHLVVGRNSTGYRLRYSGYFGGVTALSREQFFKVNGFSNNYWGWGGEDDDLRLRVELQRMKISRPLPEVGKYTMVFHTRDKGNEVNAERMKLLHQVSRVWRTDGLSSCSYKLVSVEHNPLYINITVDFWFGA [B4GALT4] when you can.
## Result 0.167

## Task Dear colleague, please send me the reported solubility in G1/S (log2) for MSLKLQASNVTNKNDPKSINSRVFIGNLNTALVKKSDVETIFSKYGRVAGCSVHKGYAFVQYSNERHARAAVLGENGRVLAGQTLDINMAGEPKPDRPKGLKRAASAIYSGYIFDYDYYRDDFYDRLFDYRGRLSPVPVPRAVPVKRPRVTVPLVRRVKTNVPVKLFARSTAVTTSSAKIKLKSSELQAIKTELTQIKSNIDALLSRLEQIAAEQKANPDGKKKGDGGGAGGGGGGGGSGGGGSGGGGGGGSSRPPAPQENTTSEAGLPQGEARTRDDGDEEGLLTHSEEELEHSQDTDADDGALQ [RALY] when you can.
## Result 0.116

---

For each of the sequences below, state its thermal stability score.
- Test system: HeLa Kyoto
- assayText: thermal stability score vs G1/S (z-score of summed log2 fold changes over temperatures); higher = more thermally stable than in G1/S
- measurementContext: cell cycle stage: early G1 (4.5 h after nocodazole release)

## Task Dear colleague, please send me the reported thermal stability score for MLSVASRSGPFAPVLSATSRGVAGALRPLVQATVPATPEQPVLDLKRPFLSRESLSGQAVRRPLVASVGLNVPASVCYSHTDIKVPDFSEYRRLEVLDSTKSSRESSEARKGFSYLVTGVTTVGVAYAAKNAVTQFVSSMSASADVLALAKIEIKLSDIPEGKNMAFKWRGKPLFVRHRTQKEIEQEAAVELSQLRDPQHDLDRVKKPEWVILIGVCTHLGCVPIANAGDFGGYYCPCHGSHYDASGRIRLGPAPLNLEVPTYEFTSDDMVIVG [UQCRFS1] when you can.
## Result -1.93

## Task Dear colleague, please send me the reported thermal stability score for MWRSCLRLRDGGRRLLNRPAGGPSASMSPGPTIPSPARAYAPPTERKRFYQNVSITQGEGGFEINLDHRKLKTPQAKLFTVPSEALAIAVATEWDSQQDTIKYYTMHLTTLCNTSLDNPTQRNKDQLIRAAVKFLDTDTICYRVEEPETLVELQRNEWDPIIEWAEKRYGVEISSSTSIMGPSIPAKTREVLVSHLASYNTWALQGIEFVAAQLKSMVLTLGLIDLRLTVEQAVLLSRLEEEYQIQKWGNIEWAHDYELQELRARTAAGTLFIHLCSESTTVKHKLLKE [ATPAF2] when you can.
## Result -0.051

---

For each of the sequences below, state its solubility in G1/S (log2).
- System: HeLa Kyoto
- assayText: solubility in G1/S (NP-40 vs SDS abundance) (log2 ratio); higher = more soluble
- measurementContext: cell cycle stage: G1/S
Reply with just the number.

## Task Dear colleague, please send me the reported solubility in G1/S (log2) for MGPGGPLLSPSRGFLLCKTGWHSNRLLGDCGPHTPVSTALSFIAVGMAAPSMKERQVCWGARDEYWKCLDENLEDASQCKKLRSSFESSCPQQWIKYFDKRRDYLKFKEKFEAGQFEPSETTAKS [COA6] when you can.
## Result -0.656

## Task Dear colleague, please send me the reported solubility in G1/S (log2) for MVLLTMIARVADGLPLAASMQEDEQSGRDLQQYQSQAKQLFRKLNEQSPTRCTLEAGAMTFHYIIEQGVCYLVLCEAAFPKKLAFAYLEDLHSEFDEQHGKKVPTVSRPYSFIEFDTFIQKTKKLYIDSRARRNLGSINTELQDVQRIMVANIEEVLQRGEALSALDSKANNLSSLSKKYRQDAKYLNMRSTYAKLAAVAVFFIMLIVYVRFWWL [SEC22B] when you can.
## Result -0.0184

## Task Dear colleague, please send me the reported solubility in G1/S (log2) for MTKLAQWLWGLAILGSTWVALTTGALGLELPLSCQEVLWPLPAYLLVSAGCYALGTVGYRVATFHDCEDAARELQSQIQEARADLARRGLRF [DPM3] when you can.
## Result -0.196

## Task Dear colleague, please send me the reported solubility in G1/S (log2) for MGEPSREEYKIQSFDAETQQLLKTALKDPGAVDLEKVANVIVDHSLQDCVFSKEAGRMCYAIIQAESKQAGQSVFRRGLLNRLQQEYQAREQLRARSLQGWVCYVTFICNIFDYLRVNNMPMMALVNPVYDCLFRLAQPDSLSKEEEVDCLVLQLHRVGEQLEKMNGQRMDELFVLIRDGFLLPTGLSSLAQLLLLEIIEFRAAGWKTTPAAHKYYYSEVSD [MIF4GD] when you can.
## Result 0.085

---

For each of the sequences below, state its solubility in G1/S (log2).
- Tested on: HeLa Kyoto
- assayText: solubility in G1/S (NP-40 vs SDS abundance) (log2 ratio); higher = more soluble
- measurementContext: cell cycle stage: G1/S
Reply with just the number.

## Task Dear colleague, please send me the reported solubility in G1/S (log2) for MFKVIQRSVGPASLSLLTFKVYAAPKKDSPPKNSVKVDELSLYSVPEGQSKYVEEARSQLEESISQLRHYCEPYTTWCQETYSQTKPKMQSLVQWGLDSYDYLQNAPPGFFPRLGVIGFAGLIGLLLARGSKIKKLVYPPGFMGLAASLYYPQQAIVFAQVSGERLYDWGLRGYIVIEDLWKENFQKPGNVKNSPGTK [APOO] when you can.
## Result 0.444

## Task Dear colleague, please send me the reported solubility in G1/S (log2) for MVSHSELRKLFYSADAVCFDVDSTVIREEGIDELAKICGVEDAVSEMTRRAMGGAVPFKAALTERLALIQPSREQVQRLIAEQPPHLTPGIRELVSRLQERNVQVFLISGGFRSIVEHVASKLNIPATNVFANRLKFYFNGEYAGFDETQPTAESGGKGKVIKLLKEKFHFKKIIMIGDGATDMEACPPADAFIGFGGNVIRQQVKDNAKWYITDFVELLGELEE [PSPH] when you can.
## Result 0.258

## Task Dear colleague, please send me the reported solubility in G1/S (log2) for MAATLLAARGAGPAPAWGPEAFTPDWESREVSTGTTIMAVQFDGGVVLGADSRTTTGSYIANRVTDKLTPIHDRIFCCRSGSAADTQAVADAVTYQLGFHSIELNEPPLVHTAASLFKEMCYRYREDLMAGIIIAGWDPQEGGQVYSVPMGGMMVRQSFAIGGSGSSYIYGYVDATYREGMTKEECLQFTANALALAMERDGSSGGVIRLAAIAESGVERQVLLGDQIPKFAVATLPPA [PSMB6] when you can.
## Result 0.119
